Data provenance: patent US20230263822A1

Run description: Hematology assays in cynomolgus monkeys (Example 45)
Format: in vivo
Setup conditions: day −14
Observed property: eosinophils (%)
Report the figure in % without appending any unit label.

Reference set, count: 4
>>> observed_result("ISIS 416858: MOE gapmer, nucleobases 1275 to 1318 of SEQ ID NO: 1 (Table 8) (antisense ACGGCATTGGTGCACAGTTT; MOE gapmer, wing and gap sizes not given here)")
0.7
>>> observed_result("ISIS 417002: MOE gapmer, nucleobases 1275 to 1318 of SEQ ID NO: 1 (Table 8) (antisense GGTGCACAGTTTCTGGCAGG; MOE gapmer, wing and gap sizes not given here)")
0.3
>>> observed_result("ISIS 416850: MOE gapmer, nucleobases 1275 to 1318 of SEQ ID NO: 1 (Table 8) (antisense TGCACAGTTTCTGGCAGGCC; MOE gapmer, wing and gap sizes not given here)")
1.0
>>> observed_result("ISIS 416838: MOE gapmer, nucleobases 1018 to 1042 of SEQ ID NO: 1 (Table 6) (antisense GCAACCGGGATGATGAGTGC; MOE gapmer, wing and gap sizes not given here)")
0.6

Let us examine a further case.
[in] State its eosinophils for this substance: ISIS 416864: MOE gapmer, nucleobases 1275 to 1318 of SEQ ID NO: 1 (Table 8) (antisense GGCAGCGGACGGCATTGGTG; MOE gapmer, wing and gap sizes not given here)
[out] 1.0
